molecular target: Ephrin type-B receptor 3 (Homo sapiens); settings: at 0.1 µM;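 note: reported value is the mean percent inhibition of EPHB3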
MEASURE_NAME: inhibition (%)
Answers are plain numbers, in %.

Before answering, review these 8 worked examples.
ENTRY_SMILES: O=C(O[C@H]1CN[C@H](C#Cc2cc3ncnc(Nc4ccc5c(cnn5Cc5ccccc5)c4)c3s2)C1)N1CCOCC1
inhibition, %: -0.25
//
ENTRY_SMILES: CN(C)CCNC(=O)Nc1ccc(N(C)c2ccnc(Nc3ccc(CS(C)(=O)=O)cc3)n2)cc1
inhibition, %: 5.05
//
ENTRY_SMILES: CS(=O)(=O)Nc1ccc(-c2cc(-c3ccccc3)cc(C(N)=O)c2N)cc1
inhibition, %: 0.56
//
ENTRY_SMILES: CNC(=O)c1ncccc1Nc1nc(Nc2cc3c(cc2OC)CCCN3C(=O)CN(C)C)nc2[nH]ccc12
inhibition, %: 4.77
//
ENTRY_SMILES: Cc1c2ccc(N(C)c3ccnc(Nc4cccc(S(N)(=O)=O)c4)n3)cc2nn1C
inhibition, %: 3.38
//
ENTRY_SMILES: O=C(O[C@H]1CN[C@H](C#Cc2cc3ncnc(Nc4ccc5c(ccn5Cc5cc(F)ccc5F)c4)c3s2)C1)N1CCOCC1
inhibition, %: 6.61
//
ENTRY_SMILES: COc1cc(N2CCN(C(C)C)CC2)ccc1Nc1nc(Nc2cccc(F)c2C(=O)O)c2cc[nH]c2n1
inhibition, %: 3.69
//
ENTRY_SMILES: CNC(=O)c1sc(-n2cnc3cc(OC)c(OC)cc32)cc1OCc1ccccc1C(F)(F)F
inhibition, %: 4.48

Query string: Query (compound): "COc1c(C(N)=O)cc(-c2ccc(Cl)cc2)cc1-c1ccc(S(N)(=O)=O)cc1" ; field requested: inhibition
Result string: 1.93

----------
test system: Epidermal growth factor receptor (Homo sapiens), P00533 [L858R]; conditions: at 1 µM
Sequence (P00533 whole entry L858R): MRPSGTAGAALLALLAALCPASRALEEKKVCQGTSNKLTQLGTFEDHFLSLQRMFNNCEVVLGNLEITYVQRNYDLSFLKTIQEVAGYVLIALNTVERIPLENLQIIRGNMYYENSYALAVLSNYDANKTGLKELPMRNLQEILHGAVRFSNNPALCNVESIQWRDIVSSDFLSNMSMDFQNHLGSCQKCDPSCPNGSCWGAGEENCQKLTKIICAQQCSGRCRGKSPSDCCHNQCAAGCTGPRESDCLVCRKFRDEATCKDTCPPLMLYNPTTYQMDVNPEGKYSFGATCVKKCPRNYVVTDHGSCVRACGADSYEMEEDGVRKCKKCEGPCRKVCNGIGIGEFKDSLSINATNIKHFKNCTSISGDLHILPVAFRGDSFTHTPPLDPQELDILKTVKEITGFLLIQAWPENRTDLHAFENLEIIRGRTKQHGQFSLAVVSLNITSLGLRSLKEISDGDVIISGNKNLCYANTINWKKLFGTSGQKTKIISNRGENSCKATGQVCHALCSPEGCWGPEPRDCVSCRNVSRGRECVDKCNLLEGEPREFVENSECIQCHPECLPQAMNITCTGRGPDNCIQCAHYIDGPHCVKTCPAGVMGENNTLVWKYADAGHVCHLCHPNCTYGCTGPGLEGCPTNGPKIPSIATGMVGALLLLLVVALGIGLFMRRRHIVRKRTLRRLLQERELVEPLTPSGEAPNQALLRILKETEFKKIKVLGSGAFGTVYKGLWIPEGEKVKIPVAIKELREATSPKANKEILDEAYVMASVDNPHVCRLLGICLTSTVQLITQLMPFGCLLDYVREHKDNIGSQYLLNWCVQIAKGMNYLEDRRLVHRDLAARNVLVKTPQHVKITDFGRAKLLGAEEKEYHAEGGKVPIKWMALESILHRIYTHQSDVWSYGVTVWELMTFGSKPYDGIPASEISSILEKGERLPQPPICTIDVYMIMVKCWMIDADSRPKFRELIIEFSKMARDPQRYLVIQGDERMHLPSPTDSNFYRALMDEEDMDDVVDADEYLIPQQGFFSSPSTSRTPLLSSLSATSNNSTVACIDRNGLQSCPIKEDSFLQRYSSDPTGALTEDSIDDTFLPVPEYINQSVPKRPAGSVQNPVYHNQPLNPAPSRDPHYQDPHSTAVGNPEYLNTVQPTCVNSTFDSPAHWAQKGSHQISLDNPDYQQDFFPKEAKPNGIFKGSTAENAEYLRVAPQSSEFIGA
MEASURE_NAME: inhibition (%)
Give bare numbers, in %.

ENTRY_SMILES: COc1ccc(-c2nn3ncccc3c2-c2ccnc(Nc3ccc(F)c(F)c3)n2)cc1
inhibition, %: 21.4
//
ENTRY_SMILES: NC(=O)c1ccc2c(-c3ccnc(NCCCO)n3)c(-c3ccc(F)cc3)nn2c1
inhibition, %: 50.6
//
ENTRY_SMILES: O=C(O[C@H]1CN[C@H](C#Cc2cc3ncnc(Nc4ccc5c(cnn5Cc5ccccc5)c4)c3s2)C1)N1CCOCC1
inhibition, %: 56.2

For every item below, please supply its inhibition.
1. CS(=O)(=O)CCNCc1ccoc1-c1ccc2ncnc(Nc3ccc(OCc4ccccc4)cc3)c2c1
2. c1ccc(-c2n[nH]cc2-c2ccnc(-c3ccc(OCCn4ccnc4)cc3)c2)nc1
3. O=C(O[C@H]1CN[C@H](C#Cc2cc3ncnc(Nc4ccc5c(ccn5Cc5cc(F)ccc5F)c4)c3s2)C1)N1CCOCC1
4. Cc1c2ccc(N(C)c3ccnc(Nc4cccc(S(N)(=O)=O)c4)n3)cc2nn1C

Result string:
1: 51.2; 2: 24.5; 3: 53.6; 4: 11.9

For every item below, please supply its inhibition.
1. CCS(=O)(=O)c1ccc(OC)c(Nc2ncc(-c3cccc(F)c3)o2)c1
2. COc1ccccc1-c1cc(/C=C2\C(=O)Nc3ncc(Br)cc32)cc(Br)c1O

Result string:
[20.1, 0.61]

----------
biological target: Serine/threonine-protein kinase PAK 5 (Homo sapiens) (UniProt Q9P286); details: at 1 µM
Sequence (Q9P286 whole entry, looked up): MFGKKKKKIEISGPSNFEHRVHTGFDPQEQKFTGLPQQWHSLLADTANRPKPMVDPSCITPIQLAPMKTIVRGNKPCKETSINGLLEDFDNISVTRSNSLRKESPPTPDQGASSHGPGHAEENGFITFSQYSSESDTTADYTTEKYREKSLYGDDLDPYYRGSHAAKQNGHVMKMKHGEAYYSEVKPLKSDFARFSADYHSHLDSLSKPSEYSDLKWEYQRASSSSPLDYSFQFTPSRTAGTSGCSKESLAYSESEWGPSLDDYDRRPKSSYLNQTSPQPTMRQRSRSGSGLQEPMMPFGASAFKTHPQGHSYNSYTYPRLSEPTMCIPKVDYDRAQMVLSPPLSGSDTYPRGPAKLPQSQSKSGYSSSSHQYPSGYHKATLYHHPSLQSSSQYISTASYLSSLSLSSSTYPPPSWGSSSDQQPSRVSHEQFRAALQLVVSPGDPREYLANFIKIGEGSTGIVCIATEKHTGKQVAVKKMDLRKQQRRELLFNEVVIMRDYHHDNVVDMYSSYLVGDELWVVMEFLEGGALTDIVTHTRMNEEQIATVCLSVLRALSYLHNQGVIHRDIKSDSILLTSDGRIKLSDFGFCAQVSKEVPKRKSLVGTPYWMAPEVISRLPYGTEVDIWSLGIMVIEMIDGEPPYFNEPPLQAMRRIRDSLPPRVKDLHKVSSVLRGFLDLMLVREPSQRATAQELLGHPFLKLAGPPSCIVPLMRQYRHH
Description: GSK_PKIS: PAK5 mean inhibition at 1 uM [Nanosyn]
MEASURE_NAME: inhibition (%)
Numbers only, in %.

ENTRY_SMILES: CN1CCC(n2cnc(-c3ccc(F)cc3)c2-c2ccnc(NCCO)n2)CC1
inhibition [%]: 1.35

ENTRY_SMILES: NS(=O)(=O)c1ccc(N/N=C2\C(=O)Nc3cccc(CCc4ccncc4)c32)cc1
inhibition [%]: 3.39

ENTRY_SMILES: O=C(O[C@H]1CN[C@H](C#Cc2cc3ncnc(Nc4ccc5c(cnn5Cc5ccccc5)c4)c3s2)C1)N1CCOCC1
inhibition [%]: -1.71

For every item below, please supply its inhibition.
1. CS(=O)(=O)Nc1ccc(-c2cc(-c3ccccc3)cc(C(N)=O)c2N)cc1
2. CNC(=O)c1cncc(/C=C/c2ccccc2C)c1

Result string:
1: 0.16; 2: 4.8
